run description: BSK_BE3C_SRB: Viability Assessment in the BioMAP Diversity Plus: BE3C Assay (AID 2283028)
condition notes: primary human bronchial epithelial cells
Active and inactive are the calls of the source. The calls were made as follows: active = hit-call score of the fitted dose curve at least 0.9, where 1 is the maximum; inactive = score below 0.9.
Respond with a class label; see active, inactive

Study these solved cases before continuing.
structure string | label
CCN(CC)C(=O)SCc1ccc(Cl)cc1 | inactive
COP(=O)(OC)OC=C(Cl)Cl | inactive

-- ask What did this assay record as the result for `Cc1[nH]c(=O)n(C(C)(C)C)c(=O)c1Cl` ?
-- reply inactive

-- ask Called result for `CCc1ccc(C(=O)NN(C(=O)c2cc(C)cc(C)c2)C(C)(C)C)cc1`
-- reply active

----------
tested system: Bile acid receptor (Homo sapiens) (UniProt Q96RI1)
Sequence (Q96RI1 whole entry, looked up): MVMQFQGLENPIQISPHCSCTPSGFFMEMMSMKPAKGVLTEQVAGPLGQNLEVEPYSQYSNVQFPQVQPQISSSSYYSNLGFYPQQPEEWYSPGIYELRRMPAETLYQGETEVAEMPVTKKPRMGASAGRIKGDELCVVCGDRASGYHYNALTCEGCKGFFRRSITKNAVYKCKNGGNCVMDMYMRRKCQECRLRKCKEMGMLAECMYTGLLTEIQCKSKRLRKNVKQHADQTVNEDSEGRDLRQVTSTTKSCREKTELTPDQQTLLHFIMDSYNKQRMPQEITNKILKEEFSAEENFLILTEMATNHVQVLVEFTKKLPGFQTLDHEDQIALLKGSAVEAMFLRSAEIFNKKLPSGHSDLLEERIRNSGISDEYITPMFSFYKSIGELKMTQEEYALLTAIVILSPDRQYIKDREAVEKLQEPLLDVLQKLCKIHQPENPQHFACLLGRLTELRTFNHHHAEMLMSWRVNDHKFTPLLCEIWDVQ
run description: ATG_IR1_CIS: Attagene CIS-FACTORIAL HepG2 Assay for human Nuclear Receptor Subfamily 1 Group H Member 4 (NR1H4), IR1 submotif (AID 2282946)
condition notes: IR1 reporter transcription, actives raise or lower the signal
Description: ATG_CIS is a cell-based, multiplexed-readout assay that uses HepG2, a human liver cell line, with measurements taken at 24 hours after chemical dosing in a 24-well plate.ATG_IR1_CIS is one of 52 assay component(s) measured or calculated from the ATG_CIS assay. […] This assay endpoint, ATG_IR1_CIS, was analyzed with bidirectional fitting relative to DMSO as the negative control and baseline of activity. […]
The source made the active and inactive calls. Rule for the calls: active = hit-call score of the fitted dose curve at least 0.9, where 1 is the maximum; inactive = score below 0.9.
The reply should name one outcome from active, inactive

structure string | label
O=C(Nc1ccccc1)Nc1cnns1 | active

-- ask What call does the record list for `COC(=O)c1ccccc1CS(=O)(=O)NC(=O)Nc1nc(OC)cc(OC)n1` ?
-- reply inactive

-- ask State the result this test recorded for `OCCOc1ccccc1` .
-- reply inactive

----------
Read-out: Macrophage colony-stimulating factor (MCSF), CSF1 (gene 1435)
run description: BSK_LPS_MCSF: BioMAP Diversity Plus: LPS Assay for Macrophage colony-stimulating factor (MCSF) Biomarker Activity (AID 2283083)
condition notes: primary human HUVEC with PBMC; actives raise or lower the signal
Active and inactive are the calls of the source. Rule for the calls: active = hit-call score of the fitted dose curve at least 0.9, where 1 is the maximum; inactive = score below 0.9.
Assign a class; possible classes are label 1 (active), label 0 (inactive)

-- ask Write down the call the test reported for this compound. Item: CC1(C)C(C=C(Cl)Cl)C1C(=O)OC(C#N)c1ccc(F)c(Oc2ccccc2)c1 (centres undefined)
-- reply label 0

----------
tested system: Estrogen receptor (Homo sapiens)
run description: OT_ERa_GFPERaERE_0480: Odyssey Thera (OT) 8-hour HeLa Transcription Induction Assay for Estrogen Receptor (AID 2283381)
The source made the active and inactive calls. How the source made its calls: active means hit-call score of the fitted dose curve at least 0.9, where 1 is the maximum; inactive means score below 0.9.
# valid calls are label 1 (active), label 0 (inactive); nothing else

Example cases with answers are listed next.
compound | label
O=C(Nc1ccccc1)Nc1cnns1 | label 0
CNC(=O)/C=C(\C)OP(=O)(OC)OC | label 0
CC(C)N(C(=O)COc1nnc(C(F)(F)F)s1)c1ccc(F)cc1 | label 0

-- ask // return assay outcome for `CC(C)OC(=O)Nc1cccc(Cl)c1`
-- reply label 0

-- ask Record request — test call for CCC(C)(NC(=O)c1cc(Cl)c(C)c(Cl)c1)C(=O)CCl (stereo unspecified)
-- reply label 1

-- ask Give the logged outcome of this assay for the following compound: `CNC(=O)CSP(=S)(OC)OC`
-- reply label 0

-- ask What call does the record list for `CCN(CC)C(=O)SCc1ccc(Cl)cc1` ?
-- reply label 0

-- ask Lab log entry: `O=[N+]([O-])/N=C1\NCCN1Cc1ccc(Cl)nc1` — outcome as called in the assay?
-- reply label 0

-- ask Could you check what this test reported for `N#Cc1c(Cl)c(Cl)c(Cl)c(C#N)c1Cl` ?
-- reply label 0

-- ask Give the logged outcome of this assay for the following compound: `O=[N+]([O-])c1c(Cl)c(Cl)c(Cl)c(Cl)c1Cl`
-- reply label 0

-- ask Dear all, I need the recorded test outcome for `C[C@H]1[C@H](c2ccc(Cl)cc2)SC(=O)N1C(=O)NC1CCCCC1` , thank you.
-- reply label 0

----------
run description: APR_HepG2_MitoMembPot_24hr: Apredica 24-hour HepG2 Assay for Mitochondrial Membrane Potential (AID 2282911)
condition notes: imaging, actives raise or lower the signal
The source made the active and inactive calls. Rule for the calls: active = hit-call score of the fitted dose curve at least 0.9, where 1 is the maximum; inactive = score below 0.9.
observation type: AC50

compound | AC50
Cc1cc(C)nc(NC(=O)NS(=O)(=O)c2ccccc2C(=O)OC2COC2)n1 | inactive
Oc1ccc(Cl)cc1Cc1ccccc1 | inactive
CC(C)(C)C(O)C(Oc1ccc(Cl)cc1)n1cncn1 (stereo unspecified) | inactive
O=S1OCC2C(CO1)C1(Cl)C(Cl)=C(Cl)C2(Cl)C1(Cl)Cl (stereo unspecified) | inactive
CNC(=O)Oc1cccc(N=CN(C)C)c1 | inactive

// next item, AC50 requested
-- ask Quick one: AC50 for `CCN(CC)C(=O)SCc1ccc(Cl)cc1` ?
-- reply 22.8 µM (active)

----------
Read-out: Monocyte Chemoattractant Protein-1 (MCP1), CCL2 (gene 6347)
run description: BSK_SAg_MCP1: BioMAP Diversity Plus: SAg Assay for Monocyte Chemoattractant Protein-1 (MCP1) Biomarker Activity (AID 2283090)
condition notes: primary human HUVEC with PBMC; actives raise or lower the signal
The source made the active and inactive calls. Rule for the calls: active = hit-call score of the fitted dose curve at least 0.9, where 1 is the maximum; inactive = score below 0.9.
Would you mind answering with one of these outcomes? yes = active, no = inactive

molecule | label
O=C1c2ccccc2C(=O)N1SC(Cl)(Cl)Cl | no
Cc1cc(C)nc(NC(=O)NS(=O)(=O)c2ccccc2C(=O)OC2COC2)n1 | no

-- ask Entry `O=C(O)CCCOc1ccc(Cl)cc1Cl` : call = ?
-- reply no

----------
Read-out: Thrombomodulin, THBD (gene 7056)
run description: BSK_3C_Thrombomodulin: BioMAP Diversity Plus: 3C Assay for Thrombomodulin Biomarker Activity (AID 2283029)
condition notes: primary human endothelial cells (HUVEC); actives raise or lower the signal
Activity calls are given as the source filed them. Rule for the calls: active = hit-call score of the fitted dose curve at least 0.9, where 1 is the maximum; inactive = score below 0.9.
Permitted responses: active, inactive

compound | label
CCOC1Oc2ccc(OS(C)(=O)=O)cc2C1(C)C (configuration not stated) | inactive
CCCN(CCOc1c(Cl)cc(Cl)cc1Cl)C(=O)n1ccnc1 | active

-- ask Answer briefly: the call reported for CC1(c2ccc(Oc3ccccc3)cc2)OC(=O)N(Nc2ccccc2)C1=O (configuration not stated) in this assay.
-- reply inactive

-- ask Recorded call for `Oc1cc(Cl)ccc1Oc1ccc(Cl)cc1Cl` ?
-- reply inactive

----------
Read-out: Cytochrome P450 7A1 (Homo sapiens) (UniProt P22680)
run description: LTEA_HepaRG_CYP7A1: Life Technologies and Expression Analysis (LTEA) Assay for Cytochrome P450 7A1 (CYP7A1) using HepaRG (AID 2283496)
condition notes: mRNA level, 48 h; actives raise or lower the signal
The source made the active and inactive calls. How the source made its calls: active means hit-call score of the fitted dose curve at least 0.9, where 1 is the maximum; inactive means score below 0.9.
# output must be one of t = active, f = inactive

Reference set, count: 3
structure string | label
N#CN | f
O=C(O)CCCOc1ccc(Cl)cc1Cl | f
COP(=O)(OC)OC=C(Cl)Cl | f

-- ask Could you kindly confirm the outcome this assay logged for `C#CCN1C(=O)COc2cc(F)c(N3C(=O)C4=C(CCCC4)C3=O)cc21` ?
-- reply f

-- ask # fetch the recorded call for `CNC(=O)CSP(=S)(OC)OC` here
-- reply f

-- ask Field: outcome | Entry: `OCCOc1ccccc1`
-- reply f

-- ask Which outcome was assigned to `Clc1ccccc1-c1nnc(-c2ccccc2Cl)nn1` in this test?
-- reply t

-- ask How was `CN1CSC(=S)N(C)C1` classified in this test?
-- reply f

-- ask Query: recorded result category for `CCOCN(C(=O)CCl)c1c(C)cccc1CC` in this test
-- reply t

----------
Read-out: Monokine induced gamma interferon (MIG), CXCL9 (gene 4283)
run description: BSK_3C_MIG: BioMAP Diversity Plus: 3C Assay for Monokine induced gamma interferon (MIG) Biomarker Activity (AID 2283021)
condition notes: primary human endothelial cells (HUVEC); actives raise or lower the signal
The source made the active and inactive calls. How the source made its calls: active means hit-call score of the fitted dose curve at least 0.9, where 1 is the maximum; inactive means score below 0.9.
Respond only with the outcome that fits, drawn from class 1 (active), class 0 (inactive)

compound | label
CCC(C)(NC(=O)c1cc(Cl)c(C)c(Cl)c1)C(=O)CCl (stereo unspecified) | class 1
O=[N+]([O-])/N=C1\NCCN1Cc1ccc(Cl)nc1 | class 0
O=S1OCC2C(CO1)C1(Cl)C(Cl)=C(Cl)C2(Cl)C1(Cl)Cl (stereo unspecified) | class 1
COP(=S)(OC)Oc1ccc(SC)c(C)c1 | class 0
COP(=O)(OC)OC=C(Cl)Cl | class 0
CC[C@H](C)[C@H]1O[C@]2(C=C[C@@H]1C)C[C@@H]1C[C@@H](C/C=C(\C)[C@@H](O[C@H]3C[C@H](OC)[C@@H](O[C@H]4C[C@H](OC)[C@@H](O)[C@H](C)O4)[C@H](C)O3)[C@@H](C)/C=C/C=C3\CO[C@@H]4[C@H](O)C(C)=C[C@@H](C(=O)O1)[C@]34O)O2 (tested in a mixture with another compound) | class 1
ClC1C(Cl)C(Cl)C(Cl)C(Cl)C1Cl (stereo unspecified) | class 0
CCOc1nc(NC)nc(NC(=O)NS(=O)(=O)c2ccccc2C(=O)OC)n1 | class 0
CNC(=O)Oc1ccccc1OC(C)C | class 0
CC1(c2ccc(Oc3ccccc3)cc2)OC(=O)N(Nc2ccccc2)C1=O (stereo unspecified) | class 1

-- ask What did this assay record as the result for `C#CCN1C(=O)COc2cc(F)c(N3C(=O)C4=C(CCCC4)C3=O)cc21` ?
-- reply class 0

-- ask Status in this test for `N#CN` ?
-- reply class 0

-- ask How did this test come out for `CCc1ccc(C(=O)NN(C(=O)c2cc(C)cc(C)c2)C(C)(C)C)cc1` ?
-- reply class 0

-- ask Hey, what did the test say about CCOC1Oc2ccc(OS(C)(=O)=O)cc2C1(C)C (stereo unspecified) ?
-- reply class 0

-- ask Call for entry `O=C1c2ccccc2C(=O)N1SC(Cl)(Cl)Cl` :
-- reply class 0
